test system: isolated rodent G cells; conditions: read-out: Calcium (EC50); Normal G-cells
outcome.measure: EC50 (mM)
Report as a plain number; the unit mM is understood.

Suppose we examine the molecule "[Ca+2].[Cl-].[Cl-]" ; what EC50 value has been reported? 4
